molecular target: Gal(b1-4)GlcNAc(b1-3)Gal(b1-4)GlcNAc(b1-3)Gal(b1-4)GlcNAc(b1-2)Man(a1-3)[Gal(b1-4)GlcNAc(b1-3)Gal(b1-4)GlcNAc(b1-3)Gal(b1-4)GlcNAc(b1-2)Man(a1-6)]Man(b1-4)GlcNAc(b1-4)[Fuc(a1-6)]GlcNAc; test: glycan array binding signal (z-score within array); higher = stronger binding; conditions: glycan notation: IUPAC condensed, linker removed
About 410 targets per protein were measured; listed, in parts, are those with the strongest signals and a random draw of the rest.
// glycan array binding signal (z-score) lookup, one value per entry
Reply with the value as a number alone.

binder	resultValue
Mg3lysM (Mycosphaerella graminicola) (protein) APQNPPTSCSAAPQPTGTGSPGTVCGSTTFTNYTVKAGDTLGAIAKQYNSGVCDIAKVNGIDNPDYIKPDQVLSIPANCVTPDNTSCVKPVPVITNTCVLGVGSTYTVKSGDSFSAIATSFNITLASLEARNPQIPNYDLIFPGQVINTPLCPNSVCDSIGTYVIESGDIFYNLAQSNNVTVGQLESLNVNVNVTDIHPGDIIILPHNCHNITASA	-0.107

Pending binder:
Give the value of glycan array binding signal (z-score) reported for the following: Pwp5 ND (Candida glabrata) (protein) MGSSHHHHHHSSGLVPRGSHMASANPVPLTNVCYFPEEYPRQAGFRAITAGLASTILQGSVDELLNYSGLSSLTTQQTTTTTPNFQLPTLPLPTNVYGLTVVPLYLLVQLQGYFVPPVSGQYTFSLENTNDAAIIFFGNPSAFPCGDLSAWPQASADDITVTDGTFPSRTLFLKAGVAYPMRISYYNSLGSGNLAVSFTDPGGTKRTNWNGYIWRYNSCSTCTYT 3.19

Values were extracted from the supplement of paper PMC8728848.
